assay.target: Methyl-CpG-binding domain protein 2 (Homo sapiens)
assay.text: inhibitors of MBD2 binding to methylated DNA, primary screen, biochemical, TR-FRET, DNA-binding domain, human (AID 686964)
condition.description: MBD2 binding to methylated oligonucleotide, at 4.4 µM
Among all 370,000 compounds or so, about 1,100 (0.3%) were called active. Cut-off read from the data, not from the text of the source: active = inhibition above about 13%; inactive = the rest. For the sample, actives were picked, then their nearest neighbours and some compounds at random.
One label from this list, please: T for active, F for inactive

Solved cases (5 shown):
                                   compound  label
0  CCOc1ccc(N(CC(=O)NCCc2ccc(F)cc2)S(=O)(=O)c2ccccc2)cc1      F
1   COc1ccc2c(CC(=O)NNC(=O)c3ccccc3F)coc2c1      F
2   CCCC(C(=O)OCCN(CC)CC)(c1ccccc1)c1ccccc1      F
3  CC(=O)c1ccccc1NC(=O)COC(=O)C1COc2ccccc2O1 (stereo not given)      T
4  Cc1c(NS(=O)(=O)c2cccc(C(=O)Nc3ccc(SC(F)F)cc3)c2)c(=O)n(-c2ccccc2)n1C      F

Q. Hey, what did the test say about `CCCNc1ncnc2sc(C)c(C)c12` ?
A. F

Q. What call does the record list for CCC12CN3CC(CC)(CN(C1)C31C(=O)N(C)c3ccc(C)cc31)C2=O (stereo not given) ?
A. F

Q. In this assay, the call recorded for `CN(C)[C@@H]1C(=O)C(C(N)=O)=C(O)[C@@]2(O)C(=O)C3=C(O)c4c(O)ccc(Cl)c4[C@@H](O)[C@H]3C[C@@H]12` was what?
A. T

Q. Called result for `Cc1ccc(C(=O)NNC(=O)c2ccncc2)cc1S(=O)(=O)N1CCCCC1`
A. F

Q. # fetch the recorded call for COc1cccc2c1C(=O)c1c(O)c3c(c(O)c1C2=O)CC(O)(C(C)=NNC(=O)c1ccc(Cl)c(Cl)c1)CC3OC1CC(N)C(O)C(C)O1 (stereo not given) here
A. T

Q. For this compound, state the assay outcome: `Cc1cc(C)c(S(=O)(=O)Nc2c(C)n(C)n(-c3ccccc3)c2=O)cc1[N+](=O)[O-]`
A. F

Q. Assay outcome for `COc1ccccc1OCC(=O)Nc1c2c(nn1-c1ccc(F)cc1)CS(=O)(=O)C2` : what was it?
A. F

Q. So what was the verdict on C=C1c2c(Cl)ccc(O)c2C(O)=C2C(=O)[C@]3(O)C(O)=C(C(N)=O)C(=O)[C@@H](N(C)C)[C@@H]3[C@@H](O)C12 (stereo not given in full) in this test?
A. T

Q. What outcome does the record of this test show for `CCN(CC)CCOc1ccc2c(c1)C(=NNC(=O)c1ccccn1)c1cc(OCCN(CC)CC)ccc1-2` ?
A. T

Q. Called result for `Cc1ccc(-c2nc3c(Cl)cc(C(F)(F)F)cn3c2Cc2cccc(Cl)c2)cc1`
A. F

Q. Given Cc1cc(C)c(S(=O)(=O)NCC2CCC(C(=O)NCc3ccc4c(c3)OCO4)CC2)c(C)c1 (stereo not given) , state the outcome it received in this test.
A. F

Q. Outcome? `CCN(CC)S(=O)(=O)c1cc(C(=O)Nc2ccccn2)ccc1C`
A. F

---

assay.target: Methyl-CpG-binding domain protein 2 (Homo sapiens)
assay.text: inhibitors of MBD2 binding to methylated DNA, primary screen, biochemical, TR-FRET, DNA-binding domain, human (AID 686964)
condition.description: MBD2 binding to methylated oligonucleotide, at 4.4 µM, active compounds read high
Hit rate of the full screen: of about 370,000 compounds, about 1,100 (0.3%) were called active. This is one part of a sample in which actives are shown more often than they occur.
property.name: inhibition (%)
A number alone suffices; assume %.

Example entries begin here.
In [3]: df
Out[3]:
                                   compound  recorded_measurement
0        O=S(=O)(c1ccc(Br)cc1)n1ccc2ccccc21                 -0.04
1  CCOC(=O)C1CCN(C(=O)C(C)(C)NC(=O)Nc2ccc(F)c(F)c2)CC1                 -0.53
2  CC(C)c1nc(CNC(=O)CC2C(=O)NCCN2Cc2cccc(F)c2F)cs1 (centres undefined)                  24.3

Turning now to a further compound:
Q. Look up inhibition: `Cc1cc(C)nc(NC(=S)N2CCN(c3ccc(C(F)(F)F)cn3)CC2)c1`
A. -0.18

---

We begin with a simple list: items and their reported inhibition.
assay.target: Methyl-CpG-binding domain protein 2 (Homo sapiens) (UniProt Q9UBB5)
Sequence (Q9UBB5 whole entry, looked up, the tested form may be a part): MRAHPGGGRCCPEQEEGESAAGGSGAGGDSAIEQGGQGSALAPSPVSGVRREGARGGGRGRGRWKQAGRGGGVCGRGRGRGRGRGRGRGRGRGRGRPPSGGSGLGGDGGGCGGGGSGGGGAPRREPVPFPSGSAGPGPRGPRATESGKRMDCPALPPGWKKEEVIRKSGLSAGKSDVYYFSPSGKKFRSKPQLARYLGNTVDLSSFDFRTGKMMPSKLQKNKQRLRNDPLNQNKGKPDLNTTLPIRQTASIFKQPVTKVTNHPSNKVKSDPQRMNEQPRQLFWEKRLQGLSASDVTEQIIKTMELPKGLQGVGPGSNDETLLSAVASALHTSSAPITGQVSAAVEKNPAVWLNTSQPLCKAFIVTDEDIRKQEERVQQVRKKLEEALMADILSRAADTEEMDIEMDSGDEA
assay.text: inhibitors of MBD2 binding to methylated DNA, primary screen, biochemical, TR-FRET, DNA-binding domain, human (AID 686964)
condition.description: MBD2 binding to methylated oligonucleotide, at 4.4 µM, active compounds read high
About 1,100 (0.3%) of roughly 370,000 compounds were called active. The sample as a whole holds a higher share of actives than the screen did.

>>> print(df.to_string())
                                   compound                              assay_target  recorded_measurement
0  O=C(CSc1nc2ccccc2nc1N1CCCCC1)N1CCN(S(=O)(=O)c2cccc([N+](=O)[O-])c2)CC1  Methyl-CpG-binding domain protein 2 (Homo sapiens) (UniProt Q9UBB5)     -6.32% (inactive)
1  CCOC(=O)C1C(=O)OC2(CCCC2)C1C(=O)OCC (stereo not given)  Methyl-CpG-binding domain protein 2 (Homo sapiens) (UniProt Q9UBB5)        19.3% (active)
2  CCOC(=O)C1C(=O)NCC1c1ccccc1 (stereo not given)  Methyl-CpG-binding domain protein 2 (Homo sapiens) (UniProt Q9UBB5)     -0.38% (inactive)
3  O=C(CSc1nnc(COc2ccccc2)n1-c1ccc(Cl)cc1)Nc1ccc2c(c1)OCO2  Methyl-CpG-binding domain protein 2 (Homo sapiens) (UniProt Q9UBB5)      3.27% (inactive)
4  CCOC(=O)C1C(c2ccc(O)cc2)NC(=O)NC1(O)C(F)(F)F (stereo not given)  Methyl-CpG-binding domain protein 2 (Homo sapiens) (UniProt Q9UBB5)     -5.62% (inactive)

Q. For `C[C@H](O)[C@@H]1CN2CCc3ccc(-c4ccc5c(c4)OCO5)cc3[C@@H]2C[C@@H]1N(C)C(=O)C1CCCCC1` , what is its reported inhibition?
A. -1.38% (inactive)

---

inhibition for assorted compounds
assay.target: Methyl-CpG-binding domain protein 2 (Homo sapiens)
assay.text: inhibitors of MBD2 binding to methylated DNA, primary screen, biochemical, TR-FRET, DNA-binding domain, human (AID 686964)
condition.description: MBD2 binding to methylated oligonucleotide, at 4.4 µM, active compounds read high
Among all 370,000 compounds or so, about 1,100 (0.3%) were called active. For the sample, actives were picked, then their nearest neighbours and some compounds at random.
Write the answer as a number in %, unit excluded.

Q. Using the record for COc1ccc(-c2cc(=O)oc3cc(OCC(=O)N(C)C4CCS(=O)(=O)C4)ccc23)cc1 (stereo not given) , report its inhibition.
A. 2.11

Q. Would you mind telling me what inhibition value was observed for `COc1ccccc1C(=O)NCC(=O)OCC(=O)NNC(=O)c1ccc(Br)cc1` ?
A. -6.8

Q. Could you share which inhibition value was measured for `CCOC(=O)c1c(C)[nH]c(C(=O)NCCN2CCOCC2)c1C` ?
A. 4.74

Q. Name the recorded inhibition for CC(=O)c1ccc(OCC(=O)N(C)C2CCS(=O)(=O)C2)cc1 (stereo not given) .
A. 1.21

Q. For `CCOC(=O)c1sc(NC(=O)CCN2CCOCC2)c(C(=O)OCC)c1C` , what is its reported inhibition?
A. 28.4

---

assay.target: Methyl-CpG-binding domain protein 2 (Homo sapiens)
assay.text: inhibitors of MBD2 binding to methylated DNA, primary screen, biochemical, TR-FRET, DNA-binding domain, human (AID 686964)
condition.description: MBD2 binding to methylated oligonucleotide, at 4.4 µM, active compounds read high
Screen size: about 370,000 compounds; about 1,100 (0.3%) were called active. The sample as a whole holds a higher share of actives than the screen did.
Item-by-item account of inhibition
Return type: number; implicit unit %.

>>> print(df.to_string())
                                   molecule  quantity_unit  recorded_measurement
0  Cc1nc(CNc2ncnc3ccc(-c4ccc5c(c4)OCO5)cc23)cs1              %                 -2.98
1  CCN(C(=O)[C@@H](C1CC1)[C@@H](O)c1ccc2ccccc2c1)c1ccccc1              %                  3.52

Q. Reported inhibition for `C=CCN1C(=O)[C@@H](CC(=O)N2CCN(C(=O)c3ccco3)CC2)[C@]2(C(=O)OC)CCCCC=C12` : what is it?
A. 3.2

Q. What measured inhibition goes with `COc1ccc(Cl)cc1NC(=O)CCS(=O)(=O)c1ccc(Br)cc1` ?
A. 26.3

Q. Item `Nc1ncnc2c1ncn2[C@@H]1O[C@H](C(=O)N[C@@H](CCc2ccccc2)C(=O)N2CCCN(Cc3cccs3)CC2)[C@@H](O)[C@H]1O` has what recorded inhibition?
A. 1.63

Q. # get_value(readout='inhibition', item= `COc1ccc(Cl)cc1NC(=O)CN(C)Cc1ccc(OC)c(OC)c1` )
A. 0.39

Q. Suppose we examine the molecule `C/C=C/c1ccc(OCCCCN2CCC(C)CC2)c(OC)c1` ; what inhibition value has been reported?
A. -2.18
